# MEASURED ON: Cytochrome P450 2D6 (Homo sapiens) (UniProt P10635)
# Sequence (P10635 whole entry, looked up): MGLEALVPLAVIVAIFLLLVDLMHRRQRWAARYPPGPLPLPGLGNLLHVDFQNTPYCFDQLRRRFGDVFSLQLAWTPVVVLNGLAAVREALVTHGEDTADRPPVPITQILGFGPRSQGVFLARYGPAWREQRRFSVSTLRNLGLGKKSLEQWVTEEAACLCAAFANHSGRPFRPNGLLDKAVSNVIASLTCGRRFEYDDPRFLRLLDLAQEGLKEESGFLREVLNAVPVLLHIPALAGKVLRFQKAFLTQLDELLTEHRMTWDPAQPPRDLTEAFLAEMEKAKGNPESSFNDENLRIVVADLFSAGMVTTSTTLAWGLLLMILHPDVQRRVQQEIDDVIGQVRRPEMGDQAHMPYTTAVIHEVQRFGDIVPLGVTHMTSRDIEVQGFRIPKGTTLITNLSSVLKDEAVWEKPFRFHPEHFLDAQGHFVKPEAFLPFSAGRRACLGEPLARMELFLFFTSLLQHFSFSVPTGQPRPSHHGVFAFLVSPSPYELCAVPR
# TEST DESCRIPTION: Cytochrome P450 family 2 subfamily D member 6 (CYP2D6) small molecule antagonists: luciferase biochemical (cell-free) qHTS assay (AID 1645840); also: nearly all actives have a fitted effect of over 55% in size
# REPORTED CONDITIONS: P450-Glo CYP2D6 enzyme, luciferin luminescence, 1 h; series mostly up to 57.4 µM
Inconclusive results are not listed. Activity calls are given as the source filed them. Calls follow the shape of the dose curve; as a rule, active = well fitted inhibition curve with a large enough effect in the repeat runs; inconclusive = weak or mixed curves; inactive = flat fitted curve, though single readings scatter.
Pick one and only one: active, inactive

Field: example entries. Status: answers known.
MOLECULE | ASSIGNED CATEGORY
CN(CCc1ccc(Nc2ncc(-c3cccnc3)s2)cc1)Cc1ccccc1 | active
O=[N+]([O-])c1cccc2[nH]c(CNc3nc(N4CCOCC4)nc4c3ncn4-c3ccsc3)nc12 | inactive
Cn1c2ccc(F)cc2c2c(C(=O)N3CCCC3)cn(-c3ccccc3)c(=O)c21 | inactive

Exam item: Can you look up the reported call for "CC(C)(F)C[C@@H](N[C@@H](c1ccc(-c2ccc(S(C)(=O)=O)cc2)cc1)C(F)(F)F)C(=O)NC1(C#N)CC1" for me?
Marked response: active

Exam item: Can you look up the reported call for "CS(=O)(=O)N1CCC(NC(=O)c2[nH]ncc2NC(=O)c2c(Cl)cccc2Cl)CC1" for me?
Marked response: inactive

Exam item: Can you look up the reported call for "O=C(Nc1ccccc1)N1CCN(Cc2ccc3ccccc3n2)CC1" for me?
Marked response: inactive

Exam item: Can you look up the reported call for "CC(C)c1cccc2c(-c3ccccc3)cc(-c3ccc(-c4ccc(C(=O)O)cc4)[nH]3)nc12" for me?
Marked response: inactive

Exam item: Can you look up the reported call for Cc1ccc(C(=O)N(CCCN)C(c2oc3cc(Cl)ccc3c(=O)c2Cc2ccccc2)C(C)C)cc1 (centres undefined) for me?
Marked response: active

Exam item: Can you look up the reported call for "N#Cc1cc(F)cc(-c2nc(-c3ccccn3)no2)c1" for me?
Marked response: active

Exam item: Can you look up the reported call for "N#Cc1cnc2cnc(NCc3cccnc3)cc2c1Nc1ccc(F)c(Cl)c1" for me?
Marked response: active

Exam item: Can you look up the reported call for "CCN1CCN(Cc2ccc(NC(=O)c3ccc(C)c(NC(=O)c4cncc(-c5cccs5)c4)c3)cc2C(F)(F)F)CC1" for me?
Marked response: active

Exam item: Can you look up the reported call for "CC(=O)N1CCN(C(=O)Cc2ccc(Nc3ncc(F)c(Nc4ccc(C(=O)Nc5ccccc5Cl)cc4)n3)cc2)CC1" for me?
Marked response: inactive

Exam item: Can you look up the reported call for "Cc1cccc(S(=O)(=O)N2CCC[C@@H]2CCN2CCC(C)CC2)c1" for me?
Marked response: active

Exam item: Can you look up the reported call for "COc1cc(N)c(Cl)cc1C(=O)NC[C@@H]1CCN2CCC[C@@H]12" for me?
Marked response: active

Exam item: Can you look up the reported call for "CCN(CC)Cc1ccc(C(=O)N(CCc2ccccc2OC)[C@@H]2CCNC2)cc1" for me?
Marked response: active

Exam item: Can you look up the reported call for CC(C)(C)c1cc(Br)cc([C@H](CC(=O)O)NC(=O)CNC(=O)c2cc(O)cc(NC3=NCC(O)CN3)c2)c1 (some centres undefined) for me?
Marked response: inactive

Exam item: Can you look up the reported call for "CC(=O)SCC(=O)c1ccc(NS(=O)(=O)c2ccc(OCCCN(C)C)cc2)nc1" for me?
Marked response: inactive

Exam item: Can you look up the reported call for "CCCCCCOc1cc2c(cc1N(C)c1ncc(C(=O)O)cn1)C(C)(C)CCC2(C)C" for me?
Marked response: active

Exam item: Can you look up the reported call for COc1ccc(C2(O)CCC(N3CC[C@@H](NC(=O)CNC(=O)c4cccc(C(F)(F)F)c4)C3)CC2)cn1 (some centres undefined) for me?
Marked response: active
